- Tested on: U2OS
- assay-comment: Multiplex assay against U2OS
- Format: toxicity, cell-based
- assay-context: human, 24 h, 1 µM, compound concentration 1 uM, replicate 1

{"columns": ["structure-as-smiles", "experimental-target", "Population Healthy Nuclei (%)"],
 "data": [
  ["Cc1ccc(C(=O)Nc2cccc(C(F)(F)F)c2)cc1Nc1nc(-c2cccnc2)nc2c1cnn2C", "U2OS", 75],
  ["CCNc1cc(N[C@H]2CC[C@H](O)CC2)nc(Nc2ccc3c(ccn3Cc3ccccc3)c2)n1", "U2OS", 77],
  ["CCCn1c(=O)c2[nH]c(-c3cnn(Cc4cccc(C(F)(F)F)c4)c3)nc2n(CC)c1=O", "U2OS", 82],
  ["O=C(Nc1ccc(-n2nc(-c3cccnc3)cc2C(F)(F)F)cn1)c1ccc(-c2ccccc2)c(F)c1", "U2OS", 79],
  ["O=C1NC(=O)C(c2cnc3ccccn23)=C1c1cn2c3c(cc(F)cc13)CN(C(=O)N1CCCCC1)CC2", "U2OS", 64],
  ["COc1ccc(S(=O)(=O)N(CCO)c2ccccc2CN(C)C/C=C/c2ccc(Cl)cc2)cc1.O=P(O)(O)O", "U2OS", 63],
  ["CCOc1cc(C(=O)N2CCC(N3CCN(C)CC3)CC2)ccc1Nc1ncc2c(n1)N(C1CCCC1)c1ccccc1C(=O)N2C", "U2OS", 61],
  ["Cc1cc(C)c(S(=O)(=O)N(Cc2ccc(-c3cccc(S(C)(=O)=O)c3)cc2)Cc2ccc(C(F)(F)F)o2)c(C)c1", "U2OS", 82]
]}

---

- Tested on: Fibroblast
- assay-comment: Multiplex assay against human fibroblast
- Assay type: toxicity, cell-based
- assay-context: 24 h, 10 µM, compound concentration 10 uM, replicate 2
Simple rule here: Population Fragmented Nuclei (%) less than 30% is criterion met, otherwise criterion not met.

{"columns": ["compound", "class-assignment"],
 "data": [
  ["Cc1ccc2nc(NCCN)c3ncc(C)n3c2c1.O=C(O)C(F)(F)F.O=C(O)C(F)(F)F", "criterion not met"],
  ["O=C(Cc1ccc(-c2ccc(OCCN3CCOCC3)cc2)cn1)NCc1ccccc1", "criterion met"],
  ["CCOC(=O)c1c(C)[nH]c2ccc3c(c12)CN1CCc2cc(OC)ccc2C1O3 (stereo not given)", "criterion met"],
  ["COC(=N)c1nc2ccc3ncnc(Nc4ccc(OC)cc4F)c3c2s1", "criterion not met"],
  ["CN1CCC(=C2c3ccccc3CC(=O)c3sccc32)CC1.O=C(O)/C=C/C(=O)O [KETOTIFEN FUMARATE]", "criterion met"],
  ["Cc1ccc(C(=O)Nc2cccc(C(F)(F)F)c2)cc1Nc1nc(-c2cccnc2)nc2c1cnn2C", "criterion met"],
  ["O=C1NC(=O)C(c2cnc3ccccn23)=C1c1cn2c3c(cc(F)cc13)CN(C(=O)N1CCCCC1)CC2", "criterion met"],
  ["CNc1cc(Oc2cc(C(=O)Nc3cc(N4CCN(C)CC4)cc(C(F)(F)F)c3)ccc2C)ncn1", "criterion met"],
  ["C=C1/C(=C\\C=C2/CCC[C@]3(C)[C@@H]([C@H](C)/C=C/[C@H](C)C(C)C)CC[C@@H]23)C[C@@H](O)C[C@@H]1O", "criterion met"],
  ["COc1cccc2cc(-c3nc([C@H]4CC[C@H](C(=O)O)CC4)n4ncnc(N)c34)[nH]c12", "criterion not met"]
]}

---

- Test system: U2OS
- assay-comment: Multiplex assay against U2OS
- Assay type: toxicity, cell-based
- assay-context: human, 24 h, 10 µM, compound concentration 10 uM, replicate 2
Response field label: string, one of met (Population Apoptotic (%) strictly below 50%) or not met.

{"columns": ["compound", "class-assignment"],
 "data": [
  ["CCOC(=O)c1c(C)[nH]c2ccc3c(c12)CN1CCc2cc(OC)ccc2C1O3 (stereo not drawn)", "not met"],
  ["CCc1cccc(CC)c1NC(=O)c1nn(C)c2c1CCc1cnc(Nc3ccc(N4CCN(C)CC4)cc3OC)nc1-2", "met"],
  ["COC(=N)c1nc2ccc3ncnc(Nc4ccc(OC)cc4F)c3c2s1", "not met"],
  ["NC(=O)c1cccc(-c2cc(Nc3ccc(OC(F)(F)F)cc3)ncn2)c1", "met"],
  ["CCOc1cc(C(=O)N2CCC(N3CCN(C)CC3)CC2)ccc1Nc1ncc2c(n1)N(C1CCCC1)c1ccccc1C(=O)N2C", "not met"]
]}

---

- Test system: HEK-293T
- assay-comment: Multiplex assay against HEK293T
- Assay type: toxicity, cell-based
- assay-context: human, 12 h, 1 µM, compound concentration 1 uM, replicate 1
Population Mitotic Cells (%) reference

{"columns": ["structure-as-smiles", "Population Mitotic Cells (%)"],
 "data": [
  ["COc1ccc(S(=O)(=O)N(CCO)c2ccccc2CN(C)C/C=C/c2ccc(Cl)cc2)cc1.O=P(O)(O)O", 57],
  ["C=C1/C(=C\\C=C2/CCC[C@]3(C)[C@@H]([C@H](C)/C=C/[C@H](C)C(C)C)CC[C@@H]23)C[C@@H](O)C[C@@H]1O", 46],
  ["O=C(Nc1cccnn1)N1CCC(=Cc2cccc(Oc3ccc(C(F)(F)F)cn3)c2)CC1", 77],
  ["CCc1cccc(CC)c1NC(=O)c1nn(C)c2c1CCc1cnc(Nc3ccc(N4CCN(C)CC4)cc3OC)nc1-2", 72],
  ["CN[C@@H]1C[C@H]2O[C@@](C)([C@@H]1OC)n1c3ccccc3c3c4c(c5c6ccccc6n2c5c31)C(=O)NC4", 72],
  ["CCN1CCN(c2ccc(Nc3cc(N(C)C(=O)Nc4c(Cl)c(OC)cc(OC)c4Cl)ncn3)cc2)CC1", 73],
  ["COc1cccc2cc(-c3nc([C@H]4CC[C@H](C(=O)O)CC4)n4ncnc(N)c34)[nH]c12", 74]
]}

---

- Test system: HEK-293T
- assay-comment: Multiplex assay against HEK293T
- Format: toxicity, cell-based
- assay-context: human, 12 h, 10 µM, compound concentration 10 uM, replicate 1
Note to self: Population Hoechst High Intensity Objects (%) under 20% means Y, ties and anything higher get N.

{"columns": ["compound", "experimental-target", "class-assignment"],
 "data": [
  ["CN1CCN(C(=O)C(C)(C)c2ccc(C(=O)Nc3cn4cc(-c5cc(C(C)(C)C)cc(C(C)(C)C)c5)ccc4n3)cc2)CC1 [T3-CLK-N]", "HEK-293T", "Y"],
  ["COc1ccc(-c2ccc3c(N4CCOCC4)nc(N4C[C@@H](C)O[C@@H](C)C4)nc3n2)cc1CO [Ku-0063794]", "HEK-293T", "N"],
  ["Cc1cn(-c2cc(NC(=O)c3ccc(C)c(Nc4nccc(-c5cccnc5)n4)c3)cc(C(F)(F)F)c2)cn1 [NILOTINIB]", "HEK-293T", "N"],
  ["CCn1cc(-c2ccnc3[nH]c(-c4cccc(CN(C)C)c4)cc23)c(-c2ccc(NC(=O)N(C)C)cc2)n1 [GSK-1070916]", "HEK-293T", "N"],
  ["C=C1/C(=C\\C=C2/CCC[C@]3(C)[C@@H]([C@H](C)/C=C/[C@H](C)C(C)C)CC[C@@H]23)C[C@@H](O)C[C@@H]1O [DOXERCALCIFEROL]", "HEK-293T", "Y"],
  ["O=C(Nc1ccc(Cl)cc1)Nc1cccc(-c2cccc(N3CCCC3)n2)c1", "HEK-293T", "N"],
  ["Cn1nc(C(F)(F)F)cc1-c1cnc(N2CCc3cc(S(=O)(=O)Nc4c(F)cc(Cl)cc4F)cc(N4CCCC4=O)c32)nc1 [TP-020]", "HEK-293T", "Y"]
]}

---

- System: HEK-293T
- assay-comment: Multiplex assay against HEK293T
- Format: toxicity, cell-based
- assay-context: human, 48 h, 10 µM, compound concentration 10 uM, replicate 1
Could you mark each record condition met if its Population Hoechst High Intensity Objects (%) falls strictly under 20%, and condition not met if it equals or exceeds it?

{"columns": ["compound", "experimental-target", "class-assignment"],
 "data": [
  ["O=C1N/C(=N/c2ccccc2F)S/C1=C\\c1ccc(C(=O)O)cc1", "HEK-293T", "condition met"],
  ["C=C1/C(=C\\C=C2/CCC[C@]3(C)[C@@H]([C@H](C)/C=C/[C@H](C)C(C)C)CC[C@@H]23)C[C@@H](O)C[C@@H]1O [DOXERCALCIFEROL]", "HEK-293T", "condition met"],
  ["COCC(=O)NC/C=C/c1ccc2ncnc(Nc3ccc(Oc4ccc(C)nc4)c(C)c3)c2c1 [CP-724714]", "HEK-293T", "condition not met"],
  ["CNc1cc(Oc2cc(C(=O)Nc3cc(N4CCN(C)CC4)cc(C(F)(F)F)c3)ccc2C)ncn1", "HEK-293T", "condition not met"],
  ["O=C(Cc1ccc(-c2ccc(OCCN3CCOCC3)cc2)cn1)NCc1ccccc1 [TIRBANIBULIN]", "HEK-293T", "condition met"],
  ["CCOC(=O)c1c(C)[nH]c2ccc3c(c12)CN1CCc2cc(OC)ccc2C1O3 (stereo not drawn)", "HEK-293T", "condition not met"],
  ["CN1CCN(C(=O)C(C)(C)c2ccc(C(=O)Nc3cn4cc(-c5ccncc5)ccc4n3)cc2)CC1 [T3-CLK]", "HEK-293T", "condition met"],
  ["CCCS(=O)(=O)c1nc(NC2CC2)cc(-c2ccc3c(ccn3C3CC(C)(C)NC(C)(C)C3)c2)n1", "HEK-293T", "condition met"]
]}

Cited source for all entries: ChEMBL document CHEMBL4689842
